Several publications report Ki on UniProt:Q13547; those values are gathered here.
Sequence (Q13547 whole entry): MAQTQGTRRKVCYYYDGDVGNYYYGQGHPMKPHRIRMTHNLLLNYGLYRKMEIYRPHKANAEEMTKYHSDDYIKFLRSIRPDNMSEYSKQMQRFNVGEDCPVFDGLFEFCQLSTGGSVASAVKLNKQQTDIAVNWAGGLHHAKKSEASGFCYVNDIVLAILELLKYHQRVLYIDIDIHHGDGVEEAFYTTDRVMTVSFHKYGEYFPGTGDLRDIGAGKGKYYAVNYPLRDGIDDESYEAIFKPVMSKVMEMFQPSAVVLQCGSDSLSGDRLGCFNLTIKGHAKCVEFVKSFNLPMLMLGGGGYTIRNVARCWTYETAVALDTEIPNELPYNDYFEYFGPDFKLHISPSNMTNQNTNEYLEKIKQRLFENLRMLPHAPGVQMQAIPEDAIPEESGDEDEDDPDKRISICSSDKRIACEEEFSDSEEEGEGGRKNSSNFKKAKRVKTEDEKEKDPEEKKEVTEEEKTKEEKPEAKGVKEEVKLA
measurement name: Ki (µM)

compound	recorded result
CN(C)CC(C)(C)Cn1c(CCc2ccccc2)nc2cc(/C=C/C(=O)NO)ccc21	0.015

(I) CCCCCCc1nc2cc(/C=C/C(=O)NO)ccc2n1CCNC(C)C
(II) CCC(C)Oc1ccc(/C=C/C(O)=C/C(=O)/C=C/c2ccc(O)c(OC)c2)cc1 (centres undefined)
(III) CCCCCc1nc2cc(/C=C/C(=O)NO)ccc2n1CCNC(C)C
(IV) O=C(CCCCCCC(=O)Nc1ccc([C@H]2O[C@@H](CSc3ccncc3)C[C@@H](c3ccccc3)O2)cc1)NO
Data request: Order the 4 compounds from highest to lowest Ki. Give the labels in the order requested.
Data returned: II, IV, I, III

(A) O=C(/C=C/c1ccc2c(c1)nc(CCc1ccccc1)n2CCN1CCCCC1)NO
(B) COc1cc(/C=C/C(=O)/C=C(O)/C=C/c2ccc(OCC(=O)O)c(OC)c2)ccc1OCC(=O)O
Data request: Select one: A or B . Criterion: greater recorded Ki. // return label of chosen record
Data returned: B
